experiment-notes: qHTS Assay for Lipid Storage Modulators in Drosophila S3 Cells;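 also: cells counted by Cell Tracker Red CMTPX staining in the red channel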
test-parameters: BODIPY lipid droplet fluorescence, 18-24 h, cells fed with added oleic acid; measured here: cell count max response
The campaign covered roughly 320,000 compounds. About 2,100 (0.66%) were called active. Inconclusive results (about 53%) are left out. Only a selection was taken, and actives are over-represented in it overall.
Entries and their cell number change values follow.
Respond with the bare value in %.

Worked cases, answers included:
| compound | unit-label | cell number change |
| --- | --- | --- |
| O=C(CN1C(=O)/C(=C/c2ccco2)SC1=S)Nc1ccc(C(=O)O)c(O)c1 | % | 25.4 |
| COc1ccc(N=Nc2ccc3ccccc3c2)c(O)c1 | % | -14.1 |
| CC(C)(C)c1cc(S(=O)(=O)CCc2ccncc2)cc(C(C)(C)C)c1F | % | -5.56 |
| CC(C)N1CCc2c(sc(NC(=O)c3ccc(S(=O)(=O)N4CCOCC4)cc3)c2C(N)=O)C1 | % | 0.268 |
| Cc1cc(C)cc(C(=O)Nc2cc3c4c(c2)CC(=O)N4CCC3)c1 | % | -11.8 |

Request: Please give the measured cell number change for this compound: COc1ccc(CCNC(=O)C2CC(c3ccccc3[N+](=O)[O-])=NO2)cc1 (stereo not drawn)
Result: 17.6

Request: Please give the measured cell number change for this compound: CN(C)S(=O)(=O)Nc1cc(F)cc(F)c1
Result: -8.31

Request: Please give the measured cell number change for this compound: Cc1ccc(-n2c3c(c(=O)[nH]c2=O)C(C(F)(F)F)(C(F)(F)F)NC(=O)N3)cc1
Result: 7.3

Request: Please give the measured cell number change for this compound: O=C1Nc2c(c(=O)[nH]c(=O)n2-c2ccccc2)C(C(F)(F)F)(C(F)(F)F)N1
Result: -18.7

Request: Please give the measured cell number change for this compound: Cc1onc(-c2ccccc2)c1CNS(=O)(=O)c1cccc(Br)c1
Result: 12

Request: Please give the measured cell number change for this compound: CCCS(=O)(=O)c1nc(S(=O)(=O)c2ccc(C)cc2)c(NCCCN(C)C)s1
Result: 6.73

Request: Please give the measured cell number change for this compound: Cc1cc(C)n(-c2cc(N3CCOCC3)ncn2)n1
Result: -1.49

Request: Please give the measured cell number change for this compound: COc1ccccc1N1CCN(C(c2cc3cc(C)ccc3[nH]c2=O)c2nnnn2C2CCCC2)CC1 (stereo not drawn)
Result: 10.4

Request: Please give the measured cell number change for this compound: O=C1CC(c2ccc3c(c2)OCCO3)Oc2ccccc21 (stereo not drawn)
Result: 8.06

Request: Please give the measured cell number change for this compound: CC(=O)N1N=C(c2ccccc2)OC12CCCC2
Result: 3.13

Request: Please give the measured cell number change for this compound: Oc1ccc(N=Nc2ccc3ccccc3c2)cc1
Result: -16.8

Request: Please give the measured cell number change for this compound: COc1ccc(NC(=O)CN(C)C(=O)c2ccc(COc3ccccc3)cc2)cc1
Result: -6.23

----------
Entries and their cell number change values follow.
experiment-notes: qHTS Assay for Lipid Storage Modulators in Drosophila S3 Cells;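 also: cells counted by Cell Tracker Red CMTPX staining in the red channel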
test-parameters: BODIPY lipid droplet fluorescence, 18-24 h, cells fed with added oleic acid; measured here: cell count max response
Hit rate of the full screen: of about 320,000 compounds, about 2,100 (0.66%) were called active. Inconclusive results (about 53%) are left out. The sample as a whole holds a higher share of actives than the screen did.
Respond with the bare value in %.

Worked cases, answers included:
| compound | cell number change, % |
| --- | --- |
| Cc1cc(=O)n(C)c(=O)n1CCCCOc1cccc([N+](=O)[O-])c1 | 11.9 |
| CC(C)(C)NC(=O)CCc1nnc(Cc2c[nH]c3ccccc23)o1 | -0.239 |
| COc1cc(C2NC(=O)NC(C)=C2C(=O)OC(C)(C)C)ccc1OCC(N)=O (centres undefined) | 1.52 |
| O=C(NCCN1CCOCC1)c1cc2c(=O)n3ccccc3nc2n1Cc1ccccc1 | 13.8 |

Request: Please give the measured cell number change for this compound: COCCCn1c(C(=O)NCCN2CCOCC2)cc2c(=O)n3ccccc3nc21
Result: 5.41

Request: Please give the measured cell number change for this compound: COCC(C)NC(=O)CCc1nnc(C2(c3ccc(Cl)cc3)CCC2)o1 (centres undefined)
Result: 7.22

Request: Please give the measured cell number change for this compound: O=C1c2ccccc2NC(c2cccc([N+](=O)[O-])c2)N1O (centres undefined)
Result: 5.94

Request: Please give the measured cell number change for this compound: N=c1c(C(=O)NCC2CCCO2)cc2c(=O)n3ccccc3nc2n1C1CCCCC1 (centres undefined)
Result: -7.39

Request: Please give the measured cell number change for this compound: Cc1ccc(-n2c(SCC(=O)O)nc3sc4c(c3c2=O)CCCC4)cc1
Result: 9.08

Request: Please give the measured cell number change for this compound: CC1=C(C(=O)OC(C)(C)C)C(c2cccs2)NC(=O)N1 (centres undefined)
Result: 16.7

Request: Please give the measured cell number change for this compound: COCCCn1c(C(=O)N2CCOCC2)cc2c(=O)n3ccccc3nc21
Result: 17.7
